System: lung cancer cell line NCI-H358 having the KRAS G12C variant
Test: Cancer cell growth inhibition, 3D spheroids (CellTiter-Glo 3D)
Format: cell-based
Conditions: Homo sapiens, NCI-H358, 120 h; 3D spheroids, 0.002-10 µM, 5 days; read-out: H358 cell viability
For each record, write down the corresponding IC50.

Exercise: Return value of IC50 for input CCc1cc(C(=O)N[C@H](C)c2cccc(C(F)(F)CO)c2F)nn(-c2cncc(-c3cnnn3C3CC3)c2)c1=O , no commentary.
Solution: < 1000 nM

Exercise: Name the recorded IC50 of the molecule listed here: [2H]C([2H])([2H])[C@@]([2H])(NC(=O)c1ccc(=O)n(-c2cncc(-c3cnnn3C)c2)n1)c1cccc(C(F)(F)F)c1F
Solution: < 1000 nM

Exercise: Give me measured IC50, please, for this molecule: Cc1cc(C(=O)N[C@H](C)c2cc(N)cc(C(F)(F)F)c2F)nn(-c2cncc(-c3cnnn3C)c2)c1=O
Solution: < 1000 nM
